All figures here come from patent US11173151B2.

- measured_target: human V1a receptor (Homo sapiens, UniProt P37288)
- Sequence (P37288 whole entry): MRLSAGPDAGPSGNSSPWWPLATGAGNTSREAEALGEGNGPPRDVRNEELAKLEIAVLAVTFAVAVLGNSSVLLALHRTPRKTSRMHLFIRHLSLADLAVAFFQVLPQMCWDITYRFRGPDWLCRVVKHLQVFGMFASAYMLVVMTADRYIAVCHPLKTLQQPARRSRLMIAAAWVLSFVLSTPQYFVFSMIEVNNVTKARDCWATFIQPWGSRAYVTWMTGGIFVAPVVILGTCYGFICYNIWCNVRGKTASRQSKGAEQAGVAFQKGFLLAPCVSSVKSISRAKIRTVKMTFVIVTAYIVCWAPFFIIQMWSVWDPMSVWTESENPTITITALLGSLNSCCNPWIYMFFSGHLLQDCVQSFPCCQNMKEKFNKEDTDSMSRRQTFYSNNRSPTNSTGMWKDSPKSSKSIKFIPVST
- protocol_description: Cellular in vitro assay for determining vasopressin receptor activity, V1a receptor cell line (CHO, aequorin luminescence)
- condition_info: CHO cell line transfected with human V1a receptor; [Arg]-vasopressin at EC50 concentration; read-out: IC50 hV1a
Please provide measured IC50 for the entries that follow.
Answer with the number, then the unit.

For orientation, consider the following solved cases.
| molecule | value_reported |
| --- | --- |
| O=C(Nc1cccnc1)c1ccccc1-n1cnc(Cn2nc(-c3ccc(Cl)cc3)n(C[C@H](O)C(F)(F)F)c2=O)n1 | 1.2 nM |
| O=C(c1ccccc1-n1cnc(Cn2nc(-c3ccc(Cl)cc3)n(C[C@H](O)C(F)(F)F)c2=O)n1)N1CCC(O)C1 (mixture of isomers) | 3.3 nM |
| O=C(N[C@H]1C[C@H]1F)c1cccnc1-n1cnc(Cn2nc(-c3ccc(Cl)cc3)n(C[C@H](O)C(F)(F)F)c2=O)n1 (racemic) | 3.1 nM |

Need IC50 for each of these molecules.
1. COC[C@H]1CCCN1C(=O)c1cccc(C(F)(F)F)c1-n1cnc(Cn2nc(-c3ccc(Cl)cc3)n(C[C@H](O)C(F)(F)F)c2=O)n1
2. CSCC(=O)Nc1ncccc1-n1cnc(Cn2nc(-c3ccc(Cl)cc3)n(C[C@H](O)C(F)(F)F)c2=O)n1
3. O=C(Nc1ncccc1-n1cnc(Cn2nc(-c3ccc(Cl)cc3)n(C[C@H](O)C(F)(F)F)c2=O)n1)c1ccccc1F
4. NC(=O)CNc1ccncc1-n1cnc(Cn2nc(-c3ccc(Cl)cc3)n(C[C@H](O)C(F)(F)F)c2=O)n1
5. O=c1n(Cc2ncn(-c3cccnc3N3CCOCC3)n2)nc(-c2ccc(Cl)cc2)n1C[C@H](O)C(F)(F)F
6. CCn1nccc1NC(=O)c1ccccc1-n1cnc(Cn2nc(-c3ccc(Cl)cc3)n(C[C@H](O)C(F)(F)F)c2=O)n1

1: 51.5 nM; 2: 12.4 nM; 3: 78 nM; 4: 2250 nM; 5: 16 nM; 6: 11.7 nM

Need IC50 for each of these molecules.
1. C=CC(C)C(=O)Nc1ncccc1-n1cnc(Cn2nc(-c3ccc(Cl)cc3)n(C[C@H](O)C(F)(F)F)c2=O)n1 (stereo partly shown)
2. Cc1ccccc1NC(=O)c1ccccc1-n1cnc(Cn2nc(-c3ccc(Cl)cc3)n(C[C@H](O)C(F)(F)F)c2=O)n1
3. O=C(NC1CCC1)c1ccccc1-n1cnc(Cn2nc(-c3ccc(Cl)cc3)n(C[C@H](O)C(F)(F)F)c2=O)n1

["185 nM", "2.05 nM", "1.75 nM"]

Give recorded IC50 with human V1a receptor (Homo sapiens, UniProt P37288) for the following molecule: O=C(NC1CC1(F)F)c1ncccc1-n1cnc(Cn2nc(-c3ccc(Cl)cc3)n(C[C@H](O)C(F)(F)F)c2=O)n1 (mixture of isomers)
25 nM

###

- measured_target: human V1a receptor (Homo sapiens)
- Construct: expressed in transfected cells; host or cells: CHO K1 (ATCC), also stably transfected with a modified aequorin
- protocol_description: Cellular in vitro assay for determining vasopressin receptor activity, V1a receptor cell line (CHO, aequorin luminescence)
- Assay type: cell-based
- condition_info: selectivity ratio IC50 hV2 / IC50 hV1a
Please provide measured ratio IC50 hV2/hV1a for the entries that follow.
Answers are plain numbers.

For orientation, consider the following solved cases.
| compound | measured_target | value_reported |
| --- | --- | --- |
| O=C(NC1CS(=O)(=O)C1)c1ccccc1-n1cnc(Cn2nc(-c3ccc(Cl)cc3)n(C[C@H](O)C(F)(F)F)c2=O)n1 [Example 176] | human V1a receptor (Homo sapiens) | 83.3 |
| O=C(c1ncccc1-n1cnc(Cn2nc(-c3ccc(Cl)cc3)n(C[C@@H](O)C(F)(F)F)c2=O)n1)N1CCOCC1 [Example 472] | human V1a receptor (Homo sapiens) | 206.3 |

Give recorded ratio IC50 hV2/hV1a with human V1a receptor (Homo sapiens) for the following compound: CC1(C(=O)Nc2ncccc2-n2cnc(Cn3nc(-c4ccc(Cl)cc4)n(C[C@H](O)C(F)(F)F)c3=O)n2)COC1 [Example 118]
8.2

###

- measured_target: human V1a receptor (Homo sapiens, UniProt P37288)
- Construct: expressed in transfected cells; host or cells: CHO K1 (ATCC), also stably transfected with a modified aequorin
- protocol_description: Cellular in vitro assay for determining vasopressin receptor activity, V1a receptor cell line (CHO, aequorin luminescence)
- Format: cell-based
- condition_info: selectivity ratio IC50 hV2 / IC50 hV1a
Category | rule: reported ratio IC50 hV2/hV1a within range, see low interval: < 30; middle interval: ≥ 30 and < 70; high interval: ≥ 70

These recorded examples may help you get a feel for the data.
| compound | measured_target | answer_label |
| --- | --- | --- |
| O=C(c1ncccc1-n1cnc(Cn2nc(-c3ccc(Cl)cc3)n(C[C@@H](O)C(F)(F)F)c2=O)n1)N1CCNC(C(F)(F)F)C1 (mixture of isomers) [Example 476] | human V1a receptor (Homo sapiens, UniProt P37288) | high interval |
| Cc1cc(C(=O)Nc2ncccc2-n2cnc(Cn3nc(-c4ccc(Cl)cc4)n(C[C@H](O)C(F)(F)F)c3=O)n2)on1 [Example 102] | human V1a receptor (Homo sapiens, UniProt P37288) | low interval |
| O=C(Nc1cccnc1-n1cnc(Cn2nc(-c3ccc(Cl)cc3)n(C[C@H](O)C(F)(F)F)c2=O)n1)C1(C(F)(F)F)CC1 [Example 47] | human V1a receptor (Homo sapiens, UniProt P37288) | middle interval |
| O=C(c1cccc(Cl)c1-n1cnc(Cn2nc(-c3ccc(Cl)cc3)n(C[C@@H](O)C(F)(F)F)c2=O)n1)N1CCOCC1 [Example 402] | human V1a receptor (Homo sapiens, UniProt P37288) | high interval |

Which ratio IC50 hV2/hV1a band matches O=C(Nc1cccnc1-n1cnc(Cn2nc(-c3ccc(Cl)cc3)n(C[C@H](O)C(F)(F)F)c2=O)n1)C1CC1(F)F (single isomer, unassigned) [Example 42] ?
low interval

Please answer likewise for O=C(Nc1cccnc1-n1cnc(Cn2nc(-c3ccc(Cl)cc3)n(C[C@H](O)C(F)(F)F)c2=O)n1)OCC(F)(F)F [Example 62]
middle interval

###

- measured_target: human V1a receptor (Homo sapiens)
- Construct: expressed in transfected cells; host or cells: CHO K1 (ATCC), also stably transfected with a modified aequorin
- protocol_description: Cellular in vitro assay for determining vasopressin receptor activity, V1a receptor cell line (CHO, aequorin luminescence)
- Type: cell-based
- condition_info: CHO cell line transfected with human V1a receptor; [Arg]-vasopressin at EC50 concentration; read-out: IC50 hV1a
- Procedure: B-1. Cellular In Vitro Assay for Determining Vasopressin Receptor Activity The identification of agonists and antagonists of the V1a and V2 vasopressin receptors from humans, rats and dogs as well as the quantification of the activity of the compounds of the invention is carried out using recombinant cell lines. […] The bioluminescence of the cell lines is detected using a suitable luminometer [Milligan G, Marshall F, Rees S, Trends in Pharmacological Sciences 17, 235-237 (1996)]. […]
Please provide measured IC50 for the entries that follow.
Numbers only, in nM.

For orientation, consider the following solved cases.
| compound | measured_target | value_reported |
| --- | --- | --- |
| O=C(Nc1ncccc1-n1cnc(Cn2nc(-c3ccc(Cl)cc3)n(C[C@H](O)C(F)(F)F)c2=O)n1)c1ccccc1O [Example 101] | human V1a receptor (Homo sapiens) | 110 |
| CN(Cc1ccco1)C(=O)c1ccccc1-n1cnc(Cn2nc(-c3ccc(Cl)cc3)n(C[C@H](O)C(F)(F)F)c2=O)n1 [Example 330] | human V1a receptor (Homo sapiens) | 9.95 |
| CC1CCCN(C(=O)c2ccccc2-n2cnc(Cn3nc(-c4ccc(Cl)cc4)n(C[C@H](O)C(F)(F)F)c3=O)n2)C1C (mixture of isomers) [Example 275] | human V1a receptor (Homo sapiens) | 2.55 |
| Cc1ccncc1NC(=O)c1ccccc1-n1cnc(Cn2nc(-c3ccc(Cl)cc3)n(C[C@H](O)C(F)(F)F)c2=O)n1 [Example 313] | human V1a receptor (Homo sapiens) | 4.15 |
| COC1CCN(C(=O)c2ccccc2-n2cnc(Cn3nc(-c4ccc(Cl)cc4)n(C[C@H](O)C(F)(F)F)c3=O)n2)CC1 [Example 271] | human V1a receptor (Homo sapiens) | 14.5 |

Need IC50 for each of these compounds.
1. O=C(CC1CCCC1)Nc1ncccc1-n1cnc(Cn2nc(-c3ccc(Cl)cc3)n(C[C@H](O)C(F)(F)F)c2=O)n1 [Example 150]
2. O=C(NC1CCOC1)c1ccccc1-n1cnc(Cn2nc(-c3ccc(Cl)cc3)n(C[C@H](O)C(F)(F)F)c2=O)n1 (mixture of isomers) [Example 208]

1. 54.5
2. 2.4

Need IC50 for each of these compounds.
1. O=C(Nc1ncccc1-n1cnc(Cn2nc(-c3ccc(Cl)cc3)n(C[C@H](O)C(F)(F)F)c2=O)n1)C1CCCCO1 (stereo partly shown) [Example 166]
2. CN(C(=O)c1ccccc1-n1cnc(Cn2nc(-c3ccc(Cl)cc3)n(C[C@H](O)C(F)(F)F)c2=O)n1)C1CCCC1 [Example 276]
3. CC(=O)N[C@H]1CCN(C(=O)c2ccccc2-n2cnc(Cn3nc(-c4ccc(Cl)cc4)n(C[C@H](O)C(F)(F)F)c3=O)n2)C1 [Example 180]
4. N#CC1(NC(=O)c2cccnc2-n2cnc(Cn3nc(-c4ccc(Cl)cc4)n(C[C@H](O)C(F)(F)F)c3=O)n2)CC1 [Example 506]

39
2.7
68
14

Need IC50 for each of these compounds.
1. O=C(NCC(F)(F)F)c1ccncc1-n1cnc(Cn2nc(-c3ccc(Cl)cc3)n(C[C@H](O)C(F)(F)F)c2=O)n1 [Example 489]
2. O=C(Nc1cncc(F)c1)c1ccccc1-n1cnc(Cn2nc(-c3ccc(Cl)cc3)n(C[C@H](O)C(F)(F)F)c2=O)n1 [Example 255]
3. CC1(C)CCCN1C(=O)c1ccccc1-n1cnc(Cn2nc(-c3ccc(Cl)cc3)n(C[C@H](O)C(F)(F)F)c2=O)n1 [Example 336]
4. CC1(NC(=O)c2ncccc2-n2cnc(Cn3nc(-c4ccc(Cl)cc4)n(C[C@@H](O)C(F)(F)F)c3=O)n2)CC1 [Example 483]
5. O=C(c1ncccc1-n1cnc(Cn2nc(-c3ccc(Cl)cc3)n(C[C@H](O)C(F)(F)F)c2=O)n1)N1CCC[C@@H]1C(F)(F)F [Example 451]
6. O=C1CCC(NC(=O)c2ccccc2-n2cnc(Cn3nc(-c4ccc(Cl)cc4)n(C[C@H](O)C(F)(F)F)c3=O)n2)CN1 (mixture of isomers) [Example 191]
7. O=C(Nc1cccnc1-n1cnc(Cn2nc(-c3ccc(Cl)cc3)n(C[C@H](O)C(F)(F)F)c2=O)n1)C(F)(F)F [Example 36]

50
1.33
2.8
37
110
19.5
67.5

Need IC50 for each of these compounds.
1. CN(C(=O)c1ccccc1-n1cnc(Cn2nc(-c3ccc(Cl)cc3)n(C[C@H](O)C(F)(F)F)c2=O)n1)C1CCCCC1 [Example 329]
2. CC1(C)CCN(C(=O)c2ccccc2-n2cnc(Cn3nc(-c4ccc(Cl)cc4)n(C[C@H](O)C(F)(F)F)c3=O)n2)CC1 [Example 277]
3. NC(=O)[C@H]1CCCN1c1ncccc1-n1cnc(Cn2nc(-c3ccc(Cl)cc3)n(C[C@H](O)C(F)(F)F)c2=O)n1 [Example 66]
4. O=C(Nc1cccnc1-n1cnc(Cn2nc(-c3ccc(Cl)cc3)n(C[C@H](O)C(F)(F)F)c2=O)n1)C1CS(=O)(=O)C1 [Example 58]
5. O=C(c1cccc(Cl)c1-n1cnc(Cn2nc(-c3ccc(Cl)cc3)n(C[C@H](O)C(F)(F)F)c2=O)n1)N1CCS(=O)(=O)CC1 [Example 385]
6. O=C(Nc1cccnc1-n1cnc(Cn2nc(-c3ccc(Cl)cc3)n(C[C@H](O)C(F)(F)F)c2=O)n1)C1CCS(=O)(=O)C1 (mixture of isomers) [Example 50]
7. Cc1nnc(NC(=O)c2ccccc2-n2cnc(Cn3nc(-c4ccc(Cl)cc4)n(C[C@H](O)C(F)(F)F)c3=O)n2)s1 [Example 238]

1. 11.1
2. 5.3
3. 43.5
4. 19.5
5. 435
6. 20.5
7. 13.5
